# assayed.system: T1, human IL-12Rβ2 expressed on cells (human, UniProt Q99665 24-862)
# T1 construct: the cell lines are described by plasmid or cDNA number only; also called hIL-12RB2; HEK293T transiently transfected with human IL-12Rβ2
# T1 sequence: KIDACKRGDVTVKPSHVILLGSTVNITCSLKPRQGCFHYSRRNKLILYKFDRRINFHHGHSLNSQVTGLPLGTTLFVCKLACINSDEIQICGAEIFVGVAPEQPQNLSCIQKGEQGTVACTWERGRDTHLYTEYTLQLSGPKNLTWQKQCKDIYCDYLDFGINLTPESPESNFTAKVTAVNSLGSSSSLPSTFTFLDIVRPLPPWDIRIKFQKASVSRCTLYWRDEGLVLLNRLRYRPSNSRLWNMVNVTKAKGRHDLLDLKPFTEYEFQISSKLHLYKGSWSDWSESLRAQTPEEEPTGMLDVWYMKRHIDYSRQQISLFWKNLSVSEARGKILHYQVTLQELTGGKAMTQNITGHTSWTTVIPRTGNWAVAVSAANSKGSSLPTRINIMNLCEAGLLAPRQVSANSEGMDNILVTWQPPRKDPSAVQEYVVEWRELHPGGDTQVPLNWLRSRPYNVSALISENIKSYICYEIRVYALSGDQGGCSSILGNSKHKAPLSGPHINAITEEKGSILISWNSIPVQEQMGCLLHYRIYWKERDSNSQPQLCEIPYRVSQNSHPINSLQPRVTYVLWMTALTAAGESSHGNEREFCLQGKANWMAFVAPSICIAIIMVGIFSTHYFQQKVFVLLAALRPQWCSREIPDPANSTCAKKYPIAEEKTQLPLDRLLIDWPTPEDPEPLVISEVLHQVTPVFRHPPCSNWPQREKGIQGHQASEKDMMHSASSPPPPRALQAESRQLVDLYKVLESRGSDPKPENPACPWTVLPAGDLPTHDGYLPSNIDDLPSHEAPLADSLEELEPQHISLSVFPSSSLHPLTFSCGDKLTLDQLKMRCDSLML
# assay.procedure: flow cytometry, periplasmic extract VHH-HA on HEK293T cells transiently expressing human IL-12Rβ2
quantity: % cells bound (%)
One number for each entry, in %.

binder="anti-IL-12Rβ2 VHH clone 3CRH25 (clone ID 20378) (VHH, Tested as periplasmic extract; not shown: C-terminal HA tag) VHH: QVQLQESGGGLVQAGDSLRLSCTASGHTFSRYTTIGWFRQAPGKDREFVAAIRWSGDITDYADAVKGRFTISRDNVKNTVYLQMNSLNPEDTAVYYCARGYSEYGVLSRNRGLYAYWGQGTQVTVSS" readout_units=% observed_result=34.8
binder="anti-IL-12Rβ2 VHH clone 3CRHS51 (clone ID 20421) (VHH, Tested as periplasmic extract; also called 3CRHSS1; not shown: C-terminal HA tag) VHH: QVQLQESGGGLVQPGGSLRLSCAASGFTFSTYAMSWVRQAPGKGLEWVSAVNSGGLSTDYADSVEGRFTISRDDAKNMLFLQMNRLKPEDTARYYCAKYEDCSDYVCDRAGYWGQGTQVTVSS" readout_units=% observed_result=46
binder="anti-IL-12Rβ2 VHH clone 3CAHS41 (clone ID 20394) (VHH, Tested as periplasmic extract; not shown: C-terminal HA tag) VHH: QVQLQESGGGLVQAGDSLRLSCAASGRTFDTYIVGWFRQAPGKEREFVSALSWSDDTTIRDDSLRGRFTISRDNAKNTVYLLMNSLKPEDTAVYYCAAKAKPPAATWSSYRNREWYDYWGQGTQVTVSS" readout_units=% observed_result=43.3

Turning now to a further record.
IN: I would be grateful if you could share the reported % cells bound for anti-IL-12Rβ2 VHH clone 3CAHS171 (clone ID 20407) (VHH, Tested as periplasmic extract; not shown: C-terminal HA tag) VHH: QVQLQESGGGLVQPGGSLRLTCVASGFPFSTHAMSWVRQPPGKGREWISAINSGGDSTDYADSVMGRFTISRDNAKNTVYLQMNSLKSEDTAAYYCAKYEDCSDYDCSSRASWGQGTQVTVSS .
OUT: 47.5

Data origin, for the record: patent US20260209362A1
